Tested System: Signal transducer and activator of transcription 5A (Homo sapiens, UniProt P42229)
Sequence (P42229 whole entry): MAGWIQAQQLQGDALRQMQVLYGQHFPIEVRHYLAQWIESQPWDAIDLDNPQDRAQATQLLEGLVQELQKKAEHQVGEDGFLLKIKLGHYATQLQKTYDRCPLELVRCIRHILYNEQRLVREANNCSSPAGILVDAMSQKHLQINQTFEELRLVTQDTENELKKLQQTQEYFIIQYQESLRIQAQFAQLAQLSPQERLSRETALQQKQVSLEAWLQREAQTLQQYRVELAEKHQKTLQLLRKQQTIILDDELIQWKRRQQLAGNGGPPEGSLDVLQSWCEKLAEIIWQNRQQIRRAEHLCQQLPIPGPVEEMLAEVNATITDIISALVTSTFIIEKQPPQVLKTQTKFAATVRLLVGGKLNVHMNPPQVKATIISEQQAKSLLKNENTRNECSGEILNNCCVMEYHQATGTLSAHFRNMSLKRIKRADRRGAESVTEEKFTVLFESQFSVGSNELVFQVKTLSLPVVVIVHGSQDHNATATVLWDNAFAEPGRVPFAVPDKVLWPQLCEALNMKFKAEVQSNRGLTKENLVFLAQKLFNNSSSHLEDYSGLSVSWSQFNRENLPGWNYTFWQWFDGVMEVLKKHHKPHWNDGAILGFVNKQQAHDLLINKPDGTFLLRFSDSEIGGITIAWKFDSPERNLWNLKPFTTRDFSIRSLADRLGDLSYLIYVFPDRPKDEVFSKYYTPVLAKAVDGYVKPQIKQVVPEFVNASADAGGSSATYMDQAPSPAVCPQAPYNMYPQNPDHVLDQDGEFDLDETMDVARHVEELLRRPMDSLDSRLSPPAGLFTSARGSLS
Protocol Summary: Inhibition of Stat5 phosphorylation in human HEL cells after 1 hr by Western blotting
Quantity: IC50 (nM)
Supply the numeric figure in nM, leaving out any unit text.

# assay system Signal transducer and activator of transcription 5A (Homo sapiens, UniProt P42229): give IC50 of Cc1cc(Nc2nc(N[C@@H](C)c3ncc(F)cn3)ncc2Cl)[nH]n1 41

----------
Tested System: Signal transducer and activator of transcription 5A (Homo sapiens, UniProt P42229)
Protocol Summary: Inhibition of Stat5 phosphorylation in human SET2 cells after 1 hr by Western blotting
Quantity: IC50 (nM)
Supply the numeric figure in nM, leaving out any unit text.

// fetch IC50 given entry Cc1cc(Nc2nc(N[C@@H](C)c3ncc(F)cn3)ncc2Cl)[nH]n1 25

These measurements were taken from BindingDB's records for doi:10.1021/jm1011319.
